target-desc: PRMT5/MEP50 complex (Homo sapiens, UniProt O14744)
Construct: purchased Reaction Biology Corporation
Sequence (O14744 2-637 limits assumed): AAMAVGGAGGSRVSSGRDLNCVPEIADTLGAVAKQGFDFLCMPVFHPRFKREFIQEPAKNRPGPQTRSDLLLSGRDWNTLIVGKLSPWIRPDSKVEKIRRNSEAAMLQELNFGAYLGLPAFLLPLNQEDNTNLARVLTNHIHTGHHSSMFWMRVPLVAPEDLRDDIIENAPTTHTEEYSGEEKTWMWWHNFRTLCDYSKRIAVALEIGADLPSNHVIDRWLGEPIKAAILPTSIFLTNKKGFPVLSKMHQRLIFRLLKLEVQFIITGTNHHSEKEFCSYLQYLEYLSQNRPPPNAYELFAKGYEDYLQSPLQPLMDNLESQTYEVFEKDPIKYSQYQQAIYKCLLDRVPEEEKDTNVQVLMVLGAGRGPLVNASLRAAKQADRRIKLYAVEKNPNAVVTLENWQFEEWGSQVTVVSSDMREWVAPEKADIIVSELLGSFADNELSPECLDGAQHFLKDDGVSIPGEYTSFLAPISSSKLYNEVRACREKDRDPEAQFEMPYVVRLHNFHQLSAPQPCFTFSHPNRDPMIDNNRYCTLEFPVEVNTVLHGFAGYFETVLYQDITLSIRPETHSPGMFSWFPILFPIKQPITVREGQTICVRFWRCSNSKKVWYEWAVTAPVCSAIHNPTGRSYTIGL
Sequence (Q9BQA1 2-342 partner limits assumed): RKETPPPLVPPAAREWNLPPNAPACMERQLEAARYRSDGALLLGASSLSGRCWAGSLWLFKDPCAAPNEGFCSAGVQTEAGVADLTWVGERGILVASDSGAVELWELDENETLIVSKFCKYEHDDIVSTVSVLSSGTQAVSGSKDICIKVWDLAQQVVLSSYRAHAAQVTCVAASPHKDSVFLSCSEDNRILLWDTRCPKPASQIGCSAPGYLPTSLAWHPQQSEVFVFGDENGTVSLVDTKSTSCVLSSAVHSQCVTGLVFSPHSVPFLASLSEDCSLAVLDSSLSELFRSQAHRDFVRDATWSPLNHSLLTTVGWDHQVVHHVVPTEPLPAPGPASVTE
assay-remarks: PRMT5:MEP50 HotSpot Assay (full-length histone H2A substrate, plus and minus MTA)
Format: biochemical
experimental-parameters: IC50 + 2 μM MTA, in the presence of 2 μM MTA
Experimental: The PRMT5 inhibitory activity of compounds of the present invention was determined using either a PRMT5:MEP50 FlashPlate Assay (Reaction Biology Corporation) or a PRMT5:MEP50 HotSpot Assay (Reaction Biology Corporation). The assay uses recombinant full-length hi stone H2A as the PRMT5 substrate. […] The reaction was stopped and transferred to filter paper for detection. The amount of tritiated H2A in each sample was determined using a scintillation counter.
pIC50: −log10 of the molar value.
assay-readout: pIC50

Example cases with answers are listed next.
{"compound": "Cn1ncc(-c2ccc3c(=O)[nH]nc(CN)c3c2)c1-c1c(F)ccc(CC2CC2)c1C#N (single isomer, unassigned) [Example 16-29]", "readout-number": 6.95}
{"compound": "CCOc1cc(-c2cnn(C)c2-c2c(F)ccc(OC3CC3)c2C#N)cc2c(CN)n[nH]c(=O)c12 (atropisomer, axis not shown; (P)) [Example 16-73]", "readout-number": 6.04}

[a] Cn1ncc(-c2cc(Cl)c3c(=O)[nH]nc(CN)c3c2)c1-c1c(F)cc2ncc(Cl)cc2c1C#N (single isomer, unassigned) [Example 16-62]
[b] Cn1ncc(-c2ccc3c(=O)[nH]nc(CN)c3c2)c1-c1c(F)c(Cl)c2c(c1C#N)OCCC2 (single isomer, unassigned) [Example 16-40]
Lab log: flag the item ( a or b ) with the smaller pIC50 figure. Write down the label attached to your selection.
b
(b: 7.22, a: 7.54)
